target: RSV protein G (recombinant G protein) (respiratory syncytial virus (RSV), strain not stated); assay: SPR (Biacore), Fab on recombinant antigen
Experimental endpoint: koff

Binder: Fab fragment of antibody clone 853 (Fab) VH: EVQLVQSGAEVKKPGQSLKISCKTSGYIFTNYWIGWVRQRPGKGLEWMGVIFPADSDARYSPSFQGQVTISADKSIGTAYLQWSSLKASDTAIYYCARPKYYFDSSGQFSEMYYFDFWGQGTLVTVSS light: EIVLTQSPGTLSLSPGERATLSCRASQSVSSNYLAWYQQKPGQAPRLLIYGASSRAAGMPDRFSGSGSGTDFTLTISRLEPEDFAVYYCQQYGNSPLTFGGGTEVEIKRTVAAPSVFIFPPSDEQLKSGTASVVCLLNNFYPREAKVQWKVDNALQSGNSQESVTEQDSKDSTYSLSSTLTLSKADYEKHKVYACEVTHQGLSSPVTKSFNRGEC
Experimental endpoint: koff
Assay result: 0.0014 s⁻¹

Binder: Fab fragment of antibody clone 796 (Fab) VH: QVQLVESGGGVVQPGRSLRLSCAASGFSFSHFGMHWVRQVPGKGLEWVAIISYDGNNVHYADSVKGRFTISRDNSKNTLFLQMNSLRDDDTGVYYCAKDDVATDLAAYYYFDVWGRGTLVTVSS light: DIVMTQTPLSLSVTPGQPASISCRSSQSLLRSDGKTFLYWYLQKPGQSPQPLMYEVSSRFSGVPDRFSGSGSGADFTLNISRVETEDVGIYYCMQGLKIRRTFGPGTKVEIKRTVAAPSVFIFPPSDEQLKSGTASVVCLLNNFYPREAKVQWKVDNALQSGNSQESVTEQDSKDSTYSLSSTLTLSKADYEKHKVYACEVTHQGLSSPVTKSFNRGEC
Experimental endpoint: koff
Assay result: 0.000403 s⁻¹

Binder: Fab fragment of antibody clone 816 (Fab) VH: EVQLLESGGGLVQPGGSLRLSCVASGFTFSTYAMTWVRQAPGKGLEWVSVIRASGDSEIYADSVRGRFTISRDNSKNTVFLQMDSLRVEDTAVYFCANIGQRRYCSGDHCYGHFDYWGQGTLVTVSS light: DIVMTQSPLSLPVTPGEPASISCRSSQSLLHSDGRYYVDWYLQKPGQSPHLLIYLASNRASGVPDRFTGSGSGTDFTLKISRVEAEDVGVYYCMQGLHTPWTFGQGTKVDIKRTVAAPSVFIFPPSDEQLKSGTASVVCLLNNFYPREAKVQWKVDNALQSGNSQESVTEQDSKDSTYSLSSTLTLSKADYEKHKVYACEVTHQGLSSPVTKSFNRGEC
Experimental endpoint: koff
Assay result: 0.000178 s⁻¹

Binder: Fab fragment of antibody clone 859 (Fab) VH: QVQLVESGGGVVQPGRSLRLSCAVSGSSFSKYGIHWVRQAPGKGLEWVAVISYDGSKKYFTDSVKGRFTIARDNSQNTVFLQMNSLRAEDTAVYYCATGGGVNVTSWSDVEHSSSLGYWGLGTLVTVSS light: DIQMTQSPSSLSASVGDRVTITCRASQGIRNYLAWYQQKPGKVPKLLVFAASTLQSGVPSRFSGSGSGTDFTLTISSLQPEDVATYYCQRYNSAPLTFGGGTKVEIKRTVAAPSVFIFPPSDEQLKSGTASVVCLLNNFYPREAKVQWKVDNALQSGNSQESVTEQDSKDSTYSLSSTLTLSKADYEKHKVYACEVTHQGLSSPVTKSFNRGEC
Experimental endpoint: koff
Assay result: 4.63e-05 s⁻¹
